- TARGET_OR_SYSTEM: T1, recombinant protein CDH6 (UniProt P55285 54-615)
- T1 construct: also called CDH6 recombinant protein; CDH6 antigen
- T1 sequence (looked up): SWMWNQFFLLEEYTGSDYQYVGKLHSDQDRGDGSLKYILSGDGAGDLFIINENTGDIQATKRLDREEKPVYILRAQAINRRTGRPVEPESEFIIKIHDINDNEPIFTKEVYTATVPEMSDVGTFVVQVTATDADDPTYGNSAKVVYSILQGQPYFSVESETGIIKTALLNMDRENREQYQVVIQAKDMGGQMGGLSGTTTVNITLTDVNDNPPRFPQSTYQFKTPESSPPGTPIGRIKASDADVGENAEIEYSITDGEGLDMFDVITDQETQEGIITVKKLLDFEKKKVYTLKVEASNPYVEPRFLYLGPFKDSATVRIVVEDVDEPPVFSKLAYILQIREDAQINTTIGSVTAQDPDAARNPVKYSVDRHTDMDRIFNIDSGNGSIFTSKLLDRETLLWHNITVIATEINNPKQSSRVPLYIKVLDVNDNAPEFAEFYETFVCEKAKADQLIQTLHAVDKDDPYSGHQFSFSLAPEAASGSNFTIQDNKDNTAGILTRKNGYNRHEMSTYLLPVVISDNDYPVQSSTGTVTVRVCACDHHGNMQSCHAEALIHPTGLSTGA
- METHOD: ELISA, CDH6 coated; antibody 3.13 ng/mL
ENDPOINT_NAME: OD450

For CL069439 antibody (antibody, V domains shown, Mouse monoclonal antibody from hybridoma, purified from ascites with Protein A/G; also called #16; No. 16) VH: EVQLQQSGTELVRTGASVKISCKASGYSFTGYYIHWIKQSHGESLEWIGYISCFNGDTSYNQNFKDRATFNVDTSSSTAYMQFISLTSEDSAVYYCVRGRYGNFNYFDYWGQGTTLTVSS VL: DIVLTQSPASLAVSLGQRATISCRASESVEFYGTSLMQWFQQKPGHPPQLLIYATSNVDSGVPARFSASGSGTDFSLNIHPVEEADIAMYFCQQSRRIPWTFGGGTKLEIK , what is its reported OD450?
1.87 OD450

Subsequent entry: CL069463 antibody (antibody, V domains shown, Mouse monoclonal antibody from hybridoma, purified from ascites with Protein A/G; also called #13; No. 13) VH: EVQLVESGGGLVQPKGSLKLSCAASGFTFNTYALTWVRQAPGKGLEWVGRIKSKNKDYETYYADSVKDRFTISRNDSQSLLYLQMNNLKTEDTAIYYCVRQNWNYFDYWGQGTTLTVSS VL: DIQMTQSPASLAASVGETVTITCRASENIYYSLAWYQQRQGKSPQLLIYNANSLKDGVPSRFSGSGSGTQYSMKINSMQPEDTATYFCQQAYDVPPTFGGGTKLEIK
0.596 OD450

Subsequent entry: CL069066 antibody (antibody, V domains shown, Mouse monoclonal antibody from hybridoma, purified from ascites with Protein A/G; also called #4; No. 4) VH: EVKLLESGGGLVQPGGSLKLSCAASGFDFSRYWMTWVRQAPGKGLEWIGEINPDSSTINYTPSLKDKFIISRDNAKNTLYLQMNKVTSEDTALYYCTRRPHYYGYFDSWGQGTTLTVSS VL: DIVLTQSPASLAVSLGQRATISCRASESVEYYGTTLMQWYQQKPGQPPQLLIYAGSNVESGVPARFSGSGSGTEFSLNIHPVEEDDIGMYFCQQSRKVPWTFGGGTKLEIK
0.3 OD450

Subsequent entry: CL069707 antibody (antibody, V domains shown, Mouse monoclonal antibody from hybridoma, purified from ascites with Protein A/G; also called #23; No. 23) VH: EVHLVESGGGLVQPKGSLKLSCVASGFTFTTYAMNWVRQAPGKGLEWVARIRIKNNNYATYYADSVTDRFTISRDDSQSMLYLQMNNLKTEDTAMYYCVRPDYGNYGLAYWGQGTLVTVSA VL: EIVLTQSPTTMAASPGEKITITCSASSSISSHYLHWYQQKPGFSPKLLIYRSFYLASGVPLRFTGSGSGTSYSLTIGTMEAEDVATYYCQQDIVPLTFGAGTKLELK
0.831 OD450
